Data provenance: patent US20050222147A1

Below, each entry is listed with its recorded CCR-3 Eosinophil Chemotaxis Assay (fpKi).
tgt: eosinophil chemotaxis
assay_name: Eosinophil chemotaxis assay (eotaxin-induced)
Type: cell-based, human
condition_label: functional pKi (fpKi)
# print the numeric value only

input: Quick one: CCR-3 Eosinophil Chemotaxis Assay (fpKi) for CS(=O)(=O)Nc1cccc(CC(=O)NC[C@H]2CN(Cc3ccc(Cl)s3)CCO2)c1 [Example 49] ?
output: 8.07

input: I have this molecule here, CN(C)c1ccc(CC(=O)NCC2CN(Cc3ccc(Cl)c(Cl)c3)CCO2)cc1.O=CO (centres unmarked) [Example 12] , and I need its recorded CCR-3 Eosinophil Chemotaxis Assay (fpKi).
output: 6.82

input: // query CCR-3 Eosinophil Chemotaxis Assay (fpKi) value for entry C[C@H]1CO[C@H](CNC(=O)Cc2ccc(Cl)cc2)CN1Cc1ccc(Cl)c(Cl)c1 (relative stereo) [Example 27]
output: 7.39

input: Given NS(=O)(=O)c1cccc(CC(=O)NC[C@H]2CN(Cc3ccc(Cl)c(Cl)c3)CCO2)c1 [Example 162] , state its recorded CCR-3 Eosinophil Chemotaxis Assay (fpKi).
output: 8.2

input: Quick check: CCR-3 Eosinophil Chemotaxis Assay (fpKi) of CS(=O)(=O)c1ccc(CC(=O)NCC2CN(Cc3ccc(Cl)c(Cl)c3)CCO2)cc1.O=CO (centres unmarked) [Example 2] ?
output: 6.51
